Where these numbers come from: paper PMC8482771

- Target Of Assay: h-P2X4R (Homo sapiens, UniProt Q99571)
- Sequence (Q99571 whole entry): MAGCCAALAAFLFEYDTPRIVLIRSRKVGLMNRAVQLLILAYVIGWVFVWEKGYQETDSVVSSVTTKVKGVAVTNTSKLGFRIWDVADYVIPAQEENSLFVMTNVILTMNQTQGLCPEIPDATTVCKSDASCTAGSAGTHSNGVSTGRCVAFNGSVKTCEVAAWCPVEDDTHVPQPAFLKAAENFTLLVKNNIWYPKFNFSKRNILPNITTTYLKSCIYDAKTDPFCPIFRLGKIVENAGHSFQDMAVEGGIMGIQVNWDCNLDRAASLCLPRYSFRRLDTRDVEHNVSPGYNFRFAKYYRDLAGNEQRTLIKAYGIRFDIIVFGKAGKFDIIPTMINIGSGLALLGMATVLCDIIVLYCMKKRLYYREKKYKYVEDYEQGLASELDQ
- Method: Mode of inhibition: ATP dose-response curve without and with inhibitor, h-P2X4R
- Assay type: cell-based
Quantity Kind: EC50 (nM)

# Compound, Quantity Kind, Experimental Value
records = [
    ("Nc1ncnc2c1ncn2[C@@H]1O[C@H](COP(=O)(O)OP(=O)(O)OP(=O)(O)O)[C@@H](O)[C@H]1O [ATP, adenosine triphosphate, reference compound]", "EC50", 2590),
]

###

inhibition at 50 µM for assorted compounds
- Target Of Assay: h-P2X5 receptor (Homo sapiens, UniProt Q93086)
- Sequence (Q93086 whole entry): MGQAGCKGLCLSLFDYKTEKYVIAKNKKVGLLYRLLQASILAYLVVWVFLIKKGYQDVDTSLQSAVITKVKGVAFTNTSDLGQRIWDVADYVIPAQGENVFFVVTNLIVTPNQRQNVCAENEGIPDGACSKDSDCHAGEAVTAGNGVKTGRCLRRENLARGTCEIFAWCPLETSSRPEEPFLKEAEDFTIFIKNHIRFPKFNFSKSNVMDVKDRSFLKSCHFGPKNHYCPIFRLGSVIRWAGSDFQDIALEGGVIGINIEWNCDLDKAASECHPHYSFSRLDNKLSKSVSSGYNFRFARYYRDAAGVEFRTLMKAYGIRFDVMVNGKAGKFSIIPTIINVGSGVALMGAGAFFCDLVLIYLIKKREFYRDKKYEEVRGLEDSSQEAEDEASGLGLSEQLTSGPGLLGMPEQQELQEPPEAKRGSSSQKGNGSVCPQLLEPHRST
- Method: Ca2+ influx assay
- Assay type: cell-based
- Measurement Parameters: 1321-N1, read-out: h-P2X5 % inhibition
Quantity Kind: inhibition at 50 µM (%)

# Chemical String, Quantity Kind, Experimental Value
rows = [
    ("CC(=NNC(=O)c1ccccc1NS(C)(=O)=O)c1ccccc1F", "inhibition at 50 µM", 16),
    ("CC(=NNC(=O)c1ccccc1NS(C)(=O)=O)c1cccc(Br)c1", "inhibition at 50 µM", 0),
    ("CC(=NNC(=O)c1ccccc1NS(C)(=O)=O)c1ccc([N+](=O)[O-])s1", "inhibition at 50 µM", 19),
    ("CC(=NNC(=O)c1ccccc1NS(C)(=O)=O)c1ccc(N)cc1", "inhibition at 50 µM", 10),
    ("COc1ccc(C(C)=NNC(=O)c2ccccc2NS(C)(=O)=O)cc1", "inhibition at 50 µM", 26),
]
